What Artemin Binding Response (nm) was measured for each of the following?
# tgt: T1, MfArtemin-MMH (cynomolgous monkey (Macaca fascicularis))
# T1 construct: also called mfARTN.mmh; mfARTN (A108-G22).mmh
# T1 chain: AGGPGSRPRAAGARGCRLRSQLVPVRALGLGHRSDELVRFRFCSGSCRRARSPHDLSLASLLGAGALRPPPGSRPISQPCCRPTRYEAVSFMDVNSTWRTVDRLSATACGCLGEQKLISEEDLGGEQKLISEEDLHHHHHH
# test.method.notes: BLI (Octet HTX), mAb captured on AHC tips, artemin at 30 nM, 25 C
Answer format: value, then unit.

query: Need Artemin Binding Response (nm) of H4H33335P (antibody, human IgG4 S228P, kappa, V domains shown, Fully human antibody; also called Artemin mAb; anti-ARTN antibody) VH: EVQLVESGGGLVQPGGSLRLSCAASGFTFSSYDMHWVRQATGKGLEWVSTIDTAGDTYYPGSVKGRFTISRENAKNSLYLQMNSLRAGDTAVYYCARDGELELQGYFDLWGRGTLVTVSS VL: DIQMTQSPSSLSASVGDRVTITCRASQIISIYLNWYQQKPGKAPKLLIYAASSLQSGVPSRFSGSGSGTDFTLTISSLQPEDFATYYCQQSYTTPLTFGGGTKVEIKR , thanks.
result: 0.09 nm

query: Entry H4H33349P (antibody, human IgG4 S228P, kappa, V domains shown, Fully human antibody; also called Artemin mAb; anti-ARTN antibody) VH: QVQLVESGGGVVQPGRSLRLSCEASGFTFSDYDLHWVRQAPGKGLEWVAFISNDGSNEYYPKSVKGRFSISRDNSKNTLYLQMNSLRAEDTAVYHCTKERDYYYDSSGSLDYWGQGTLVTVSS VL: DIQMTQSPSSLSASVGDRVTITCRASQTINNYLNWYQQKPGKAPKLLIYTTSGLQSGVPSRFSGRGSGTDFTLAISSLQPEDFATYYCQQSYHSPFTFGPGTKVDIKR please
result: 0.12 nm

query: Entry H4H33336P (antibody, human IgG4 S228P, kappa, V domains shown, Fully human antibody; also called Artemin mAb; anti-ARTN antibody) VH: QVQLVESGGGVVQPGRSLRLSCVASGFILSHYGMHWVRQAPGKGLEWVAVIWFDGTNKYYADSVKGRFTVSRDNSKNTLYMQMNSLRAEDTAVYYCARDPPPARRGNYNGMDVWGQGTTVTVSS VL: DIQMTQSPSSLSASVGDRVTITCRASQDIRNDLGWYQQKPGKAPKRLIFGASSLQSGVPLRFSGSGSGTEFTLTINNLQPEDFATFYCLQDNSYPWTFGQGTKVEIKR please
result: 0.06 nm
